Entries and their half-life
# assayProcedure: Stability in human plasma
# Type: in vitro ADME
# experimentalParameters: human, plasma; 2 μM, 37° C.; read-out: half-life (t1/2) in human plasma
Where a SMILES comes first, the peptide text is derived from it. [ ]: non-standard residue; d: D form. ξ: configuration not given here. ξαMeBip(2'-Et,4'-OMe) = CCc1cc(OC)ccc1-c1ccc(CC(C)(N)C(=O)O)cc1; ξαMePhe(2,6-F2) = CC(N)(Cc1c(F)cccc1F)C(=O)O; ξαMe(hhPhe) = CC(N)(CCCc1ccccc1)C(=O)O; ξαMePhe(2-F) = CC(N)(Cc1ccccc1F)C(=O)O; ξhhPhe = NC(CCCc1ccccc1)C(=O)O; ξαMeD = CC(N)(CC(=O)O)C(=O)O; ξαMeP = CC1(C(=O)O)CCCN1; ξαMeS = CC(N)(CO)C(=O)O; Aib = CC(C)(N)C(=O)O
propertyMeasured: half-life (h)

[
  {
    "molecule": "CCc1cc(OC)ccc1-c1ccc(CC(C)(NC(=O)C(C)(CC(=O)O)NC(=O)[C@H](CO)NC(=O)[C@@H](NC(=O)C(C)(Cc2ccccc2F)NC(=O)[C@@H](NC(=O)CNC(=O)[C@H](CCC(N)=O)NC(=O)C(C)(C)NC(=O)[C@H](Cc2c[nH]cn2)NC(=O)[C@@H](N)C(C)C)[C@@H](C)O)[C@@H](C)O)C(=O)NC(C)(CCCc2ccccc2)C(N)=O)cc1 (some centres unmarked) [compound 191] (H-VH[Aib]QGT[ξαMePhe(2-F)]TS[ξαMeD][ξαMeBip(2'-Et,4'-OMe)][ξαMe(hhPhe)]-NH2)",
    "censorSymbol": "=",
    "measured": 8
  },
  {
    "molecule": "CCc1cc(OC)ccc1-c1ccc(CC(C)(NC(=O)C(C)(CC(=O)O)NC(=O)[C@H](CO)NC(=O)[C@@H](NC(=O)[C@H](Cc2ccccc2)NC(=O)[C@@H](NC(=O)CNC(=O)[C@H](CCC(=O)O)NC(=O)C2(C)CCCN2C(=O)[C@H](Cc2c[nH]cn2)NC(=O)[C@@H](N)C(C)C)[C@@H](C)O)[C@@H](C)O)C(=O)NC(C)(CCCc2ccccc2)C(N)=O)cc1 (some centres unmarked) [compound 188] (H-VH[ξαMeP]EGTFTS[ξαMeD][ξαMeBip(2'-Et,4'-OMe)][ξαMe(hhPhe)]-NH2)",
    "censorSymbol": ">",
    "measured": 24
  },
  {
    "molecule": "CCc1cc(OC)ccc1-c1ccc(CC(C)(NC(=O)[C@H](CC(=O)O)NC(=O)[C@H](CO)NC(=O)[C@@H](NC(=O)C(C)(Cc2c(F)cccc2F)NC(=O)[C@@H](NC(=O)CNC(=O)[C@H](CCC(=O)O)NC(=O)C(C)(C)NC(=O)[C@H](Cc2c[nH]cn2)NC(=O)[C@@H](N)C(C)C)[C@@H](C)O)[C@@H](C)O)C(=O)NC(CCCc2ccccc2)C(N)=O)cc1 (some centres unmarked) [compound 31] (H-VH[Aib]EGT[ξαMePhe(2,6-F2)]TSD[ξαMeBip(2'-Et,4'-OMe)][ξhhPhe]-NH2)",
    "censorSymbol": "=",
    "measured": 8
  },
  {
    "molecule": "CCc1cc(OC)ccc1-c1ccc(CC(C)(NC(=O)C(C)(CC(=O)O)NC(=O)[C@H](CO)NC(=O)[C@@H](NC(=O)[C@H](Cc2ccccc2)NC(=O)[C@@H](NC(=O)CNC(=O)[C@H](CCC(N)=O)NC(=O)[C@H](C)NC(=O)[C@H](Cc2c[nH]cn2)NC(=O)[C@@H](N)C(C)C)[C@@H](C)O)[C@@H](C)O)C(=O)NC(CCCc2ccccc2)C(N)=O)cc1 (some centres unmarked) [compound 58] (H-VHAQGTFTS[ξαMeD][ξαMeBip(2'-Et,4'-OMe)][ξhhPhe]-NH2)",
    "censorSymbol": "=",
    "measured": 8
  },
  {
    "molecule": "CCc1cc(OC)ccc1-c1ccc(CC(C)(NC(=O)[C@H](CC(=O)O)NC(=O)C(C)(CO)NC(=O)[C@@H](NC(=O)C(C)(Cc2ccccc2F)NC(=O)[C@@H](NC(=O)CNC(=O)[C@H](CCC(=O)O)NC(=O)[C@H](C)NC(=O)[C@H](Cc2c[nH]cn2)NC(=O)[C@@H](N)C(C)C)[C@@H](C)O)[C@@H](C)O)C(=O)NC(C)(CCCc2ccccc2)C(N)=O)cc1 (some centres unmarked) [compound 170] (H-VHAEGT[ξαMePhe(2-F)]T[ξαMeS]D[ξαMeBip(2'-Et,4'-OMe)][ξαMe(hhPhe)]-NH2)",
    "censorSymbol": ">",
    "measured": 24
  }
]
